# Target System: T1, CRBN, Q96SW2;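 further: pooled lentiviral library of zinc finger degron-EGFP fusions in mCherry-positive Jurkat cells, FACS-sorted after compound exposure, with degron abundance counted by next-generation sequencing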
# T1 chain: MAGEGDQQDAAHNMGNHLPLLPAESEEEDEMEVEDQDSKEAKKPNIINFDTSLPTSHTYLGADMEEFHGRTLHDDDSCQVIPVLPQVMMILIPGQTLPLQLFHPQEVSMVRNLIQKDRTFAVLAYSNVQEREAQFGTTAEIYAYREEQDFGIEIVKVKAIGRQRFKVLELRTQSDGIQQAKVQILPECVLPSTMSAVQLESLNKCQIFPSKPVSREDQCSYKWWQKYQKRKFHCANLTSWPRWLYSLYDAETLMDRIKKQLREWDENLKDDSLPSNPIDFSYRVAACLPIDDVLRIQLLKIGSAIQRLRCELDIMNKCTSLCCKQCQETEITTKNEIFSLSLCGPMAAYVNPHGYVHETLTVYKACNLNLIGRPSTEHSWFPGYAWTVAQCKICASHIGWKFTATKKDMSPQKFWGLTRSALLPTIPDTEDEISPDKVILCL
# Experimental Protocol: log2 fold change of degron read counts, EGFP-low vs EGFP+ sorted cells (limma voom), compound-induced degradation; higher = more compound-induced degradation of the degron-EGFP fusion; degrons are variants of IKZF1/3 zinc finger 2; compound dose not given here
# Condition Label: Jurkat; 18 h; compound: compound 22 (5-morpholino-thalidomide)
Whole data set: some 8,300 sequences, median “log2 fold change of degron read counts, EGFP-low vs EGFP+ sorted cells (limma voom), compound-induced degradation” near -1.1, cut for the highest 2% near 3.2. The entries come from a sample that favours the highest values as a whole.
Measured Metric: log2 fold change of degron read counts

>>> assay_value("FDCPVCGACFTQKGNLLRHIKL [46F_47D_49P_50V_52G_53A_54C_55F_67L_, Q9UKT9]")
-0.358
>>> assay_value("FGCPVCGACFTQKGNLLRHIKL [46F_47G_49P_50V_52G_53A_54C_55F_67L_, Q9UKT9]")
3.16
>>> assay_value("LVCPICGFRCTQKGNLLRHIKL [46L_47V_49P_50I_52G_53F_54R_55C_67L_, Q9UKT9]")
3.01
>>> assay_value("FVCPVCGACFTQKGNLLRHIKL [46F_47V_49P_50V_52G_53A_54C_55F_67L_, Q9UKT9]")
1.87
>>> assay_value("FRCPVCGACFTQKGNLLRHIKL [46F_47R_49P_50V_52G_53A_54C_55F_67L_, Q9UKT9]")
0.101
>>> assay_value("FVCDVCGACFTQKGNLLRHIKL [46F_47V_49D_50V_52G_53A_54C_55F_67L_, Q9UKT9]")
-0.0454
>>> assay_value("FACPVCGACFTQKGNLLRHIKL [46F_47A_49P_50V_52G_53A_54C_55F_67L_, Q9UKT9]")
1.64
